Provenance of the data: patent US4544512A

Reported zone of inhibition at 3000 µg/mL is given for each of the following molecules.
- Tested on: Cryptococcus unigtullatas
- Experimental Protocol: Antimycotic activity, paper disk inhibition zone
- Assay type: cell-based
- Assay Setup: 48 h, concentration of 3 mg/ml, paper disk 8 mm, 37° C., 2 days, read-out: Inhibition zone diameters
Dear colleague, please return just the value in mm, with no unit written.

For orientation, consider the following solved cases.
1) CCCCCCCCCCCCCCOCCCOP(=O)([O-])OCC[N+](C)(C)C [drawing 29 R = C14 H29] ... 21
2) CCCCCCCCCCCCOCC(COP(=O)([O-])OCC[N+](C)(C)C)OC (stereo not shown) [drawing 27 R = C12 H25] ... 15
3) CCCCCCCCCCCCCOCCCOP(=O)([O-])OCC[N+](C)(C)C [drawing 29 R = C13 H27] ... 20
4) CCCCCCCCCCCCCCCCCCOCC(COP(=O)([O-])OCC[N+](C)(C)C)OC (stereo not shown) [drawing 27 R = C18 H37] ... 18
5) CCCCCCCCCCCCCCOCC(COP(=O)([O-])OCC[N+](C)(C)C)OC (stereo not shown) [drawing 27 R = C14 H29] ... 22

Lookup: zone of inhibition at 3000 µg/mL for CCCCCCCCCCCCOCCCOP(=O)([O-])OCC[N+](C)(C)C [drawing 29 R = C12 H25] ?
Found: 19

###

Reported MIC is given for each of the following compounds.
- Tested on: Leptosphaeria salvinii
- Experimental Protocol: Antifungal activity, serial dilution method (MIC)
- Format: cell-based
- Assay Setup: Nakataea oryzae; 1% glucose-bouillon agar medium; read-out: MIC Leptosphaeria salvinii (rice stem rot)
Dear colleague, please return just the value in µg/mL, with no unit written.

1. CCCCCCCCCCCCOCC(COP(=O)([O-])OCC[N+](C)(C)C)OC (stereo not drawn) [Compound (A) R = C12 H25, reference compound] ... 25
2. CCCCCCCCCCCCOCCCOP(=O)([O-])OCC[N+](C)(C)C [Compound (B) R = C12 H25, reference compound] ... 25
3. CCCCCCCCCCCCCCCCCCOCC(COP(=O)([O-])OCC[N+](C)(C)C)OC (stereo not drawn) [Compound (A) R = C18 H37, reference compound] ... 12.5
4. CCCCCCCCCCCCCCCCCCOCCCOP(=O)([O-])OCC[N+](C)(C)C [Compound (B) R = C18 H37, reference compound] ... 50
5. CCCCCCCCCCCCCOCC(COP(=O)([O-])OCC[N+](C)(C)C)OC (stereo not drawn) ... 6.25

Kindly consider the entry below.
Lookup: MIC for CCCCCCCCCCCCCOCCCOP(=O)([O-])OCC[N+](C)(C)C ?
Found: 12.5

###

Reported zone of inhibition at 3000 µg/mL is given for each of the following compounds.
- Tested on: Cryptococcus unigtullatas
- Experimental Protocol: Antimycotic activity, paper disk inhibition zone
- Type: cell-based
- Assay Setup: 48 h, concentration of 3 mg/ml, paper disk 8 mm, 37° C., 2 days, read-out: Inhibition zone diameters
Dear colleague, please return just the value in mm, with no unit written.

For orientation, consider the following solved cases.
1) CCCCCCCCCCCCCCOCC(COP(=O)(O)OCCN)OC (stereo not shown) [drawing 28 R = C14 H29] ... 13.5
2) CCCCCCCCCCCCCOCC(COP(=O)([O-])OCC[N+](C)(C)C)OC (stereo not shown) [drawing 27 R = C13 H27] ... 19

Lookup: Give recorded zone of inhibition at 3000 µg/mL with Cryptococcus unigtullatas for the following compound: CCCCCCCCCCCCCCCCCCOCCCOP(=O)([O-])OCC[N+](C)(C)C [drawing 29 R = C18 H37]
Found: 17
